IC50: recorded values
# ASSAY OVERVIEW: Inhibition of Plasmodium falciparum falcipain-3 expressed in Escherichia coli
Give a bare numeral; the unit nM is implied.

Some solved entries appear below for comparison.
1. Cc1c(-c2ccccc2Cl)noc1C(=O)NN(CC(C)C)c1nc(C#N)ncc1Cl : 571
2. CC(=O)N1CCC(N(NC(=O)c2ccc(CN3CCN(C)CC3)cc2)c2nc(C#N)ncc2Br)CC1 : 26
3. CC(C)CN(NC(=O)C(C)(C)c1ccc(OCCN2CCOCC2)cc1)c1nc(C#N)ncc1Br : 13
4. CN1CCN(Cc2ccc(C(=O)NN(CC3CCC3)c3nc(C#N)ncc3Br)cc2)CC1 : 111
5. CC(C)CN(NC(=O)c1cc(CN2CCN(C)CC2)on1)c1nc(C#N)ncc1Br : 46

IC50 for "Cc1ccc2sc(C(=O)NN(CC(C)C)c3nc(C#N)ncc3Br)cc2c1" ?
748

Try this molecule next: "CC(C)(C)OC(=O)NN(CC1CCC1)c1nc(C#N)ncc1Br"
62

Now try "Cc1nc(-c2ccc(C(=O)NN(CC(C)C)c3nc(C#N)ncc3Br)cc2)cs1" .
164

###

# ASSAY OVERVIEW: Inhibition of Plasmodium falciparum falcipain-3 expressed in Escherichia coli
pIC50: −log10 of the molar value.
Everything with pIC50 lower than 7 is No; everything else, including exactly 7, is Yes.

1) C[C@@H]1CCC[C@H]1N(NC(=O)c1ccc(CN2CCN(C)CC2)cc1)c1nc(C#N)ncc1Br : Yes
2) CC(C)CN(NC(=O)OC(C)(C)C)c1nccc(C#N)n1 : No
3) CC(C)CN(NC(=O)c1cc(-c2cccs2)[nH]n1)c1nc(C#N)ncc1Cl : No
4) CC(C)(C)OC(=O)NN(Cc1ccccc1)c1nc(C#N)ncc1Br : No
5) CCCN1CCN(c2ccc(C(=O)NN(CC(C)C)c3nc(C#N)ncc3Br)cc2)CC1 : Yes

Entry "CN1CCN(Cc2ccc(C(=O)NN(CC3CCCC3)c3nc(C#N)ncc3Br)cc2)CC1" : is its pIC50 no less than 7?
Yes

// same read-out, input: "CC(C)CN(NC(=O)c1ccc(-c2ccc(CN3CCN(C)CC3)cc2)nc1)c1nc(C#N)ncc1Br"
Yes

# iterate: "CC(C)CN(NC(=O)Cc1c(F)cccc1F)c1nc(C#N)ncc1Br"
Yes

Continue with "CC(C)CN(NC(=O)OC(C)(C)C)c1nc(C#N)ncc1[N+](=O)[O-]"
Yes

Also check "COc1nc(C#N)nc(N(CC(C)C)NC(=O)OC(C)(C)C)n1"
No

###

# ASSAY OVERVIEW: Inhibition of Plasmodium falciparum falcipain-3 expressed in Escherichia coli
MEASURED PROPERTY: log10(IC50) (log10 of the value in nM)
Note: values are log10 of IC50 expressed in nM.

Examples with their reported log10(IC50) follow.
1. CC(C)CN(NC(=O)c1ccc2sccc2c1)c1nc(C#N)ncc1Br : 2.19
2. CC(C)CN(NC(=O)c1ccc(CN2CCN(C)CC2)s1)c1nc(C#N)ncc1Br : 1.08
3. Cc1nc(-c2ccccc2)sc1C(=O)NN(CC(C)C)c1nc(C#N)ncc1Br : 3.00
4. Cc1c(C(=O)NN(CC(C)C)c2nc(C#N)ncc2Br)oc2cccnc12 : 1.86
5. CC(C)(C)OC(=O)NN(c1nc(C#N)ncc1Br)C1CCCCC1 : 0.90

Recorded log10(IC50) for "CC(C)CN(NC(=O)c1nccc2ccccc12)c1nc(C#N)ncc1Cl" , please?
2.29

Where do these numbers come from? They come from ChEMBL document CHEMBL1212900.
